Ref: ChEMBL document CHEMBL5724914

# Experimental conditions: human gut metagenome, 24 h, 2 µM;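 note: anaerobic incubation with a human gut microbial community sample, drug level tracked by LC–MS at 9 sampling points across 0–24 h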; note: call rule not given here
Observed property: Bacterial Biotransformation

Here is how some molecules turned out for Bacterial Biotransformation.
molecule="CC(C)NCC(O)COc1ccc(CCOCC2CC2)cc1 (centres undefined) [BETAXOLOL]" experimental_value="Compound NOT metabolized"
molecule=CN1CCc2c(c3ccccc3n2Cc2ccccc2)C1.CN1CCc2c(c3ccccc3n2Cc2ccccc2)C1.O=S(=O)(O)c1cccc2c(S(=O)(=O)O)cccc12 experimental_value="Compound NOT metabolized"
molecule="CN1CCN(CC/C=C2/c3ccccc3Sc3ccc(S(=O)(=O)N(C)C)cc32)CC1 [THIOTHIXENE]" experimental_value="Compound metabolized"
molecule="CC(C)c1nc(CN(C)C(=O)N[C@H](C(=O)N[C@@H](Cc2ccccc2)C[C@H](O)[C@H](Cc2ccccc2)NC(=O)OCc2cncs2)C(C)C)cs1 [RITONAVIR]" experimental_value="Compound NOT metabolized"
molecule="CN1C[C@H](C(=O)N[C@]2(C)O[C@@]3(O)[C@@H]4CCCN4C(=O)[C@H](Cc4ccccc4)N3C2=O)C=C2c3cccc4[nH]cc(c34)C[C@H]21.CN1C[C@H](C(=O)N[C@]2(C)O[C@@]3(O)[C@@H]4CCCN4C(=O)[C@H](Cc4ccccc4)N3C2=O)C=C2c3cccc4[nH]cc(c34)C[C@H]21.O=C(O)C(O)C(O)C(=O)O [ERGOTAMINE TARTRATE]" experimental_value="Compound metabolized"

Task: If you can, please state the reported Bacterial Biotransformation value of C#C[C@]1(O)CC[C@H]2[C@@H]3CCC4=CC(=O)CC[C@@H]4[C@H]3CC[C@@]21CC [LEVONORGESTREL] .
Output: Compound NOT metabolized

Task: If you can, please state the reported Bacterial Biotransformation value of CN1C(C(=O)Nc2ccccn2)=C(O)c2sccc2S1(=O)=O [TENOXICAM] .
Output: Compound metabolized

Task: If you can, please state the reported Bacterial Biotransformation value of C[C@@H]1CC[C@H]2[C@@H](C)C(=O)O[C@@H]3O[C@@]4(C)CC[C@@H]1[C@]32OO4 [ARTEMISININ] .
Output: Compound metabolized

Task: If you can, please state the reported Bacterial Biotransformation value of CC(=O)CC(c1ccccc1)c1c(O)c2ccccc2oc1=O (centres undefined) [WARFARIN] .
Output: Compound metabolized

Task: If you can, please state the reported Bacterial Biotransformation value of Cc1nc2n(c(=O)c1CCN1CCC(c3noc4cc(F)ccc34)CC1)CCCC2 [RISPERIDONE] .
Output: Compound metabolized

Task: If you can, please state the reported Bacterial Biotransformation value of OC(CCN1CCCCC1)(c1ccccc1)C1CCCCC1 (centres undefined) [TRIHEXYPHENIDYL] .
Output: Compound NOT metabolized

Task: If you can, please state the reported Bacterial Biotransformation value of CC(C)(Oc1ccc(CCNC(=O)c2ccc(Cl)cc2)cc1)C(=O)O [BEZAFIBRATE] .
Output: Compound metabolized

Task: If you can, please state the reported Bacterial Biotransformation value of COc1c(C)c2c(c(O)c1C/C=C(\C)CCC(=O)OCCN1CCOCC1)C(=O)OC2 [MYCOPHENOLATE MOFETIL] .
Output: Compound NOT metabolized

Task: If you can, please state the reported Bacterial Biotransformation value of CS(=O)(=O)O.OC(CCN1CCCCC1)(c1ccccc1)c1ccccc1 [PRIDINOL METHANESULFONATE] .
Output: Compound NOT metabolized
